B1: library; a variant is named by its letters at N, in order (parent)
chain: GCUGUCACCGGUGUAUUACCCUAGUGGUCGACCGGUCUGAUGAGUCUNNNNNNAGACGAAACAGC

Variants of: B1
Assay: FACS-Seq fitted mean relative fluorescence mCherry/BFP with ligand (log10 relative fluorescence); ligand: hypoxanthine (xanthine aptamer); ligand concentration (+) FACS-Seq: 5 mM; higher = higher reporter protein expression
Conditions: HEK293T, ligand present: yes
# thresholds on FACS-Seq fitted mean (log10) define classes: interval 1 = under 0.3, interval 2 = from 0.3 up to 0.6, interval 3 = 0.6 and over

MUTATIONS	CATEGORY LABEL
UACAUG	interval 1
AUGUAG	interval 1
CGUGGG	interval 2
AGGUCA	interval 3
UGAUAU	interval 1
CUUGAU	interval 1
AAAUGC	interval 1
AGUGUA	interval 1
AAAAGA	interval 2
ACGCAG	interval 2
UUAGAA	interval 1
CGCCAG	interval 2
UCCGUU	interval 1
UGGAGA	interval 3
GCUUCG	interval 2
UGCGGC	interval 3
AUUCCU	interval 2
UGAGAU	interval 3
GUUACC	interval 1
CAGGAA	interval 2
GAUGAG	interval 2
CGCGGG	interval 3
AACGGU	interval 2
GCGUUG	interval 3
GGAGAC	interval 1
GAACAG	interval 3
UGAGCU	interval 1
UUCCUG	interval 1
CGAUAC	interval 1
GAAAAA	interval 3
AAAUGA	interval 3
AAGUGU	interval 1
UACUAG	interval 2
GGCAAG	interval 3
GCGGUC	interval 3
UGUACU	interval 3
CAUGAC	interval 1
AACUAU	interval 2
UGAUGA	interval 2
AAUGGA	interval 1
AACGGG	interval 2
CAGAGA	interval 3
ACCUGG	interval 3
AGGUAG	interval 2
CUGACA	interval 2
AUGAAU	interval 3
AUGUGU	interval 1
AACUGG	interval 3
GAUAUG	interval 1
GUCGAC	interval 2
CAAUAA	interval 2
GCUGGC	interval 2
CGAACC	interval 3
UCCGCG	interval 3
AGCGCU	interval 1
GAUUUA	interval 2
GAAAGU	interval 1
CACCUU	interval 1
GGGCCA	interval 3
AGGUGA	interval 3
ACGCGC	interval 3
AGGCGU	interval 3
UUAUGG	interval 2
CGGGUU	interval 1
GGAAGC	interval 2
CGGAAU	interval 2
GCGACC	interval 2
AAGUGA	interval 1
UAUAAG	interval 1
AUAGCA	interval 2
UGGUUC	interval 1
